Below, each entry is listed with its recorded recovery at 1.5 h, 39 µg/mL.
TEST_DETAILS: Degradation of prodrugs and release of parent drug in rat plasma
Assay type: in vitro ADME
CONDITION_SUMMARY: male, Hannover-Janvier RjHan, rat plasma (Li-heparin), 37° C., 1.5 h, percent area of prodrug at t0
RECORDED_METRIC: recovery at 1.5 h, 39 µg/mL (%)

COMPOUND	UNIT_OF_MEASUREMENT	MEASURED_VALUE
Cn1nc(C(F)(F)C(F)(F)F)c(C(F)(F)F)c1-n1cc(-c2ccc(Cl)c(C(=O)N(COC(=O)/C=C/C(=O)O)C3(C#N)CC3)c2)cn1	%	10
N#CC1(N(COC(=O)/C=C/C(=O)O)C(=O)c2cc(-c3cnn(-c4c(Cl)cc(C(F)(C(F)(F)F)C(F)(F)F)cc4OC(F)(F)F)c3)ccc2Cl)CC1	%	49
N#CC1(N(COC(=O)c2ccc(C(=O)O)cc2)C(=O)c2cc(-c3cnn(-c4c(Cl)cc(C(F)(C(F)(F)F)C(F)(F)F)cc4OC(F)(F)F)c3)ccc2Cl)CC1	%	100
N#CC1(N(COC(=O)CCCC(=O)O)C(=O)c2cc(-c3cnn(-c4c(Cl)cc(C(F)(C(F)(F)F)C(F)(F)F)cc4OC(F)(F)F)c3)ccc2Cl)CC1	%	56
Cn1nc(C(F)(F)C(F)(F)F)c(C(F)(F)F)c1-n1cc(-c2ccc(Cl)c(C(=O)N(COC(=O)CCCC(=O)O)C3(C#N)CC3)c2)cn1	%	9
N#CC1(N(COC(=O)CCC(=O)O)C(=O)c2cc(-c3cnn(-c4c(Cl)cc(C(F)(C(F)(F)F)C(F)(F)F)cc4OC(F)(F)F)c3)ccc2Cl)CC1	%	92
Cn1nc(C(F)(F)C(F)(F)F)c(C(F)(F)F)c1-n1cc(-c2ccc(Cl)c(C(=O)N(COC(=O)C3CC3C(=O)O)C3(C#N)CC3)c2)cn1 (centres unmarked)	%	74
Cn1nc(C(F)(F)C(F)(F)F)c(C(F)(F)F)c1-n1cc(-c2ccc(Cl)c(C(=O)N(COC(=O)[C@H]3CC[C@H](C(=O)O)CC3)C3(C#N)CC3)c2)cn1	%	33
Cn1nc(C(F)(F)C(F)(F)F)c(C(F)(F)F)c1-n1cc(-c2ccc(Cl)c(C(=O)N(COC(=O)c3ccc(C(=O)O)cc3)C3(C#N)CC3)c2)cn1	%	94
N#CC1(N(COC(=O)[C@H]2CC[C@H](C(=O)O)CC2)C(=O)c2cc(-c3cnn(-c4c(Cl)cc(C(F)(C(F)(F)F)C(F)(F)F)cc4OC(F)(F)F)c3)ccc2Cl)CC1	%	89
N#CC1(N(COC(=O)Cc2ccc(C(=O)O)cc2)C(=O)c2cc(-c3cnn(-c4c(Cl)cc(C(F)(C(F)(F)F)C(F)(F)F)cc4OC(F)(F)F)c3)ccc2Cl)CC1	%	47

====

TEST_DETAILS: Degradation of prodrugs and release of parent drug in rat plasma
Type: in vitro ADME
CONDITION_SUMMARY: male, Hannover-Janvier RjHan, rat plasma (Li-heparin), 37° C., 2 h, percent area of prodrug at t0
Protocol: Measurement of Release of Parent Drug in Rat Plasma 1 mg of the test compound was dissolved in 0.5 mL acetonitrile/dimethylsulfoxide 9:1. For complete dissolution the HPLC vial was shaken and treated with ultrasound. […] The supernatant was analysed by HPLC (Method 8) to determine the amount of the test compound. In addition, the reaction mixture was analysed by method 9 (HPLC-MS) at the final timepoint. Both decrease of the prodrug concentration and increase of parent drug concentration were monitored. […]
RECORDED_METRIC: recovery at 2 h, 39 µg/mL (%)

COMPOUND	RECORDED_METRIC	UNIT_OF_MEASUREMENT	MEASURED_VALUE
Cn1nc(C(F)(F)C(F)(F)F)c(C(F)(F)F)c1-n1cc(-c2ccc(Cl)c(C(=O)N(COC(=O)c3ccc(C(=O)O)cc3)C3(C#N)CC3)c2)cn1	recovery at 2 h, 39 µg/mL	%	92
Cn1nc(C(F)(F)C(F)(F)F)c(C(F)(F)F)c1-n1cc(-c2ccc(Cl)c(C(=O)N(COC(=O)/C=C/C(=O)O)C3(C#N)CC3)c2)cn1	recovery at 2 h, 39 µg/mL	%	4
N#CC1(N(COC(=O)Cc2ccc(C(=O)O)cc2)C(=O)c2cc(-c3cnn(-c4c(Cl)cc(C(F)(C(F)(F)F)C(F)(F)F)cc4OC(F)(F)F)c3)ccc2Cl)CC1	recovery at 2 h, 39 µg/mL	%	36
N#CC1(N(COC(=O)CCCC(=O)O)C(=O)c2cc(-c3cnn(-c4c(Cl)cc(C(F)(C(F)(F)F)C(F)(F)F)cc4OC(F)(F)F)c3)ccc2Cl)CC1	recovery at 2 h, 39 µg/mL	%	48
N#CC1(N(COC(=O)c2ccc(C(=O)O)cc2)C(=O)c2cc(-c3cnn(-c4c(Cl)cc(C(F)(C(F)(F)F)C(F)(F)F)cc4OC(F)(F)F)c3)ccc2Cl)CC1	recovery at 2 h, 39 µg/mL	%	100
Cn1nc(C(F)(F)C(F)(F)F)c(C(F)(F)F)c1-n1cc(-c2ccc(Cl)c(C(=O)N(COC(=O)C3CC3C(=O)O)C3(C#N)CC3)c2)cn1 (centres unmarked)	recovery at 2 h, 39 µg/mL	%	66
N#CC1(N(COC(=O)CCC(=O)O)C(=O)c2cc(-c3cnn(-c4c(Cl)cc(C(F)(C(F)(F)F)C(F)(F)F)cc4OC(F)(F)F)c3)ccc2Cl)CC1	recovery at 2 h, 39 µg/mL	%	90
Cn1nc(C(F)(F)C(F)(F)F)c(C(F)(F)F)c1-n1cc(-c2ccc(Cl)c(C(=O)N(COC(=O)CCCC(=O)O)C3(C#N)CC3)c2)cn1	recovery at 2 h, 39 µg/mL	%	0
N#CC1(N(COC(=O)[C@H]2CC[C@H](C(=O)O)CC2)C(=O)c2cc(-c3cnn(-c4c(Cl)cc(C(F)(C(F)(F)F)C(F)(F)F)cc4OC(F)(F)F)c3)ccc2Cl)CC1	recovery at 2 h, 39 µg/mL	%	86
N#CC1(N(COC(=O)/C=C/C(=O)O)C(=O)c2cc(-c3cnn(-c4c(Cl)cc(C(F)(C(F)(F)F)C(F)(F)F)cc4OC(F)(F)F)c3)ccc2Cl)CC1	recovery at 2 h, 39 µg/mL	%	35
Cn1nc(C(F)(F)C(F)(F)F)c(C(F)(F)F)c1-n1cc(-c2ccc(Cl)c(C(=O)N(COC(=O)[C@H]3CC[C@H](C(=O)O)CC3)C3(C#N)CC3)c2)cn1	recovery at 2 h, 39 µg/mL	%	22

====

TEST_DETAILS: Degradation of prodrugs and release of parent drug in rat plasma
Assay type: in vitro ADME
CONDITION_SUMMARY: male, Hannover-Janvier RjHan, rat plasma (Li-heparin), 37° C., 1 h, percent area of prodrug at t0
Below, each entry is listed with its recorded recovery at 1 h, 39 µg/mL.

COMPOUND	recovery at 1 h, 39 µg/mL
N#CC1(N(COC(=O)[C@H]2CC[C@H](C(=O)O)CC2)C(=O)c2cc(-c3cnn(-c4c(Cl)cc(C(F)(C(F)(F)F)C(F)(F)F)cc4OC(F)(F)F)c3)ccc2Cl)CC1	92%
Cn1nc(C(F)(F)C(F)(F)F)c(C(F)(F)F)c1-n1cc(-c2ccc(Cl)c(C(=O)N(COC(=O)/C=C/C(=O)O)C3(C#N)CC3)c2)cn1	26%
N#CC1(N(COC(=O)CCCC(=O)O)C(=O)c2cc(-c3cnn(-c4c(Cl)cc(C(F)(C(F)(F)F)C(F)(F)F)cc4OC(F)(F)F)c3)ccc2Cl)CC1	66%
N#CC1(N(COC(=O)c2ccc(C(=O)O)cc2)C(=O)c2cc(-c3cnn(-c4c(Cl)cc(C(F)(C(F)(F)F)C(F)(F)F)cc4OC(F)(F)F)c3)ccc2Cl)CC1	100%
Cn1nc(C(F)(F)C(F)(F)F)c(C(F)(F)F)c1-n1cc(-c2ccc(Cl)c(C(=O)N(COC(=O)C3CC3C(=O)O)C3(C#N)CC3)c2)cn1 (centres unmarked)	80%
N#CC1(N(COC(=O)Cc2ccc(C(=O)O)cc2)C(=O)c2cc(-c3cnn(-c4c(Cl)cc(C(F)(C(F)(F)F)C(F)(F)F)cc4OC(F)(F)F)c3)ccc2Cl)CC1	62%
Cn1nc(C(F)(F)C(F)(F)F)c(C(F)(F)F)c1-n1cc(-c2ccc(Cl)c(C(=O)N(COC(=O)c3ccc(C(=O)O)cc3)C3(C#N)CC3)c2)cn1	96%
Cn1nc(C(F)(F)C(F)(F)F)c(C(F)(F)F)c1-n1cc(-c2ccc(Cl)c(C(=O)N(COC(=O)[C@H]3CC[C@H](C(=O)O)CC3)C3(C#N)CC3)c2)cn1	49%
Cn1nc(C(F)(F)C(F)(F)F)c(C(F)(F)F)c1-n1cc(-c2ccc(Cl)c(C(=O)N(COC(=O)CCCC(=O)O)C3(C#N)CC3)c2)cn1	18%
N#CC1(N(COC(=O)CCC(=O)O)C(=O)c2cc(-c3cnn(-c4c(Cl)cc(C(F)(C(F)(F)F)C(F)(F)F)cc4OC(F)(F)F)c3)ccc2Cl)CC1	93%
N#CC1(N(COC(=O)/C=C/C(=O)O)C(=O)c2cc(-c3cnn(-c4c(Cl)cc(C(F)(C(F)(F)F)C(F)(F)F)cc4OC(F)(F)F)c3)ccc2Cl)CC1	63%
